experimentalDetails: Maxima of UV-A and UV-B absorption of quinoxaline derivatives in 2-propanol
Assay type: physicochemical
assayConditions: 1 mg of substance per 100 ml of solvent, wavelength of UV-A maximum
assayReadout: UV-A (400 320 nm) λ [nm]

> print(dat)
                                   molsmiles  unitlabel  reading
 1               CCOC(=O)c1nc2ccccc2[nH]c1=O         nm    355.8
 2  Nc1nc2ccccc2nc1NC(=O)c1cc(C(F)(F)F)cc(C(F)(F)F)c1         nm    354.0
 3                Fc1ccc2nc3nc4ccccc4nc3n2c1         nm    344.6
 4             CCc1ccn2c(c1)nc1nc3ccccc3nc12         nm    356.1
 5               c1ccc2nc3c(nc2c1)nc1ccccn13         nm    348.3
 6    C(#Cc1nc2ccccc2nc1C#Cc1ccccc1)c1ccccc1         nm    385.0
 7                       CN(C)c1cnc2ccccc2n1         nm    378.0
 8  Fc1nc2ccccc2nc1N(c1ncccn1)c1nc2ccccc2nc1F         nm    329.8
 9  CC(C)OC(=O)c1ccc(Nc2nc3ccccc3nc2-c2ccccc2)cc1         nm    381.9
10  O=C(O)c1ccc(Nc2nc3ccccc3nc2-c2ccccc2)cc1         nm    376.8
11         CCOC(=O)c1ccc(Nc2cnc3ccccc3n2)cc1         nm    375.0
12       Cc1ccc(/C=C/c2nc3ccccc3[nH]c2=O)cc1         nm    336.0
13           Clc1ccc(Nc2cnc3ccccc3n2)c(Cl)c1         nm    365.2

###

experimentalDetails: Maxima of UV-A and UV-B absorption of quinoxaline derivatives in 2-propanol
Type: physicochemical
assayConditions: 1 mg of substance per 100 ml of solvent, wavelength of UV-A maximum
assayReadout: UV-A (400 320 nm) λ [nm]

> print(dat)
                               molsmiles              assayreadout  unitlabel  reading
1   CC(C)OC(=O)c1ccc(Nc2cnc3ccccc3n2)cc1  UV-A (400 320 nm) λ [nm]         nm    374.3
2        c1ccc2nc(-c3cnc4ccccc4n3)cnc2c1  UV-A (400 320 nm) λ [nm]         nm    341.0
3  COc1cc(Nc2cnc3ccccc3n2)c(C(=O)O)cc1OC  UV-A (400 320 nm) λ [nm]         nm    380.1
4        O=C(O)c1ccc(Nc2cnc3ccccc3n2)cc1  UV-A (400 320 nm) λ [nm]         nm    374.1
